Form: system (UniProt P30543), quantity (log10(Ki)), values below.
Sequence (P30543 whole entry): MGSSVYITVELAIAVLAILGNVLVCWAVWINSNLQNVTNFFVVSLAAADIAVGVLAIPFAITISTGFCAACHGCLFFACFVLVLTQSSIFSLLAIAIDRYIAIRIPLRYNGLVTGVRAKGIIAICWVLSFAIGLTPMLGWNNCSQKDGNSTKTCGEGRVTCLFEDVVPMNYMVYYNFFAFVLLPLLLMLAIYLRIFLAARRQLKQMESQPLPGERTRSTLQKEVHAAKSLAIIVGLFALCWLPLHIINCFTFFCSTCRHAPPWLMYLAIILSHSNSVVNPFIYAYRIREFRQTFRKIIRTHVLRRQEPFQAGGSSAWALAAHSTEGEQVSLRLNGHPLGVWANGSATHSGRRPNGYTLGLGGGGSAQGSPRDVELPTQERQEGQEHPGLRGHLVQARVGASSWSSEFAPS
Values reflect log10 of reported Ki (nM).

CCCn1c(=O)c2[nH]c(-c3ccc(OCC(=O)NCCNC(=S)Nc4cc(N=C=S)cc(C(=O)NCCNC(C)=O)c4)cc3)nc2n(CCC)c1=O    2.39
CCCn1c(=O)c2[nH]c(-c3ccc(OCC(=O)NCCNC(=S)Nc4cc(N=C=S)cc(C(=O)NCCNC(=O)CCc5ccc(O)cc5)c4)cc3)nc2n(CCC)c1=O    3.15
CCCn1c(=O)c2[nH]c(-c3ccc(OCC(=O)NCCNC(=S)Nc4cc(N=C=S)cc(C(=O)NCCNC(=O)CCCC[C@@H]5SC[C@@H]6NC(=O)N[C@@H]65)c4)cc3)nc2n(CCC)c1=O    4.06

For every record below, what is its log10(Ki)?
1. CCCn1c(=O)c2[nH]c(-c3ccc(OCC(=O)NCCNC(=S)Nc4cc(N=C=S)cc(NC(=S)NCCN(C)C)c4)cc3)nc2n(CCC)c1=O
2. CCCn1c(=O)c2[nH]c(-c3ccc(OCC(=O)NCCNC(=S)Nc4cc(N=C=S)cc(C(=O)OC(=O)c5cc(N=C=S)cc(N=C=S)c5)c4)cc3)nc2n(CCC)c1=O
3. CCCn1c(=O)c2[nH]c(-c3ccc(OCC(=O)NCCNC(=S)Nc4cc(N=C=S)cc(C(N)=O)c4)cc3)nc2n(CCC)c1=O
4. CCCn1c(=O)c2[nH]c(-c3ccc(OCC(=O)NCCNC(=S)Nc4cc(N=C=S)cc(N=C=S)c4)cc3)nc2n(CCC)c1=O
5. CCCn1c(=O)c2[nH]c(-c3ccc(OCC(=O)NCCNC(=S)Nc4cc(N=C=S)cc(NC(=S)NCCNC(=O)c5ccc(N=[N+]=[N-])cc5O)c4)cc3)nc2n(CCC)c1=O

1. 3.28
2. 2.69
3. 2.56
4. 3.55
5. 2.53

---

- tested.system: A1-adenosine receptors (Rattus norvegicus, UniProt P25099)
- Construct: adenosine receptors in rat cerebral cortex membranes was assayed as described; from tissue; b141 says rat striatum
- Sequence (P25099 1-326): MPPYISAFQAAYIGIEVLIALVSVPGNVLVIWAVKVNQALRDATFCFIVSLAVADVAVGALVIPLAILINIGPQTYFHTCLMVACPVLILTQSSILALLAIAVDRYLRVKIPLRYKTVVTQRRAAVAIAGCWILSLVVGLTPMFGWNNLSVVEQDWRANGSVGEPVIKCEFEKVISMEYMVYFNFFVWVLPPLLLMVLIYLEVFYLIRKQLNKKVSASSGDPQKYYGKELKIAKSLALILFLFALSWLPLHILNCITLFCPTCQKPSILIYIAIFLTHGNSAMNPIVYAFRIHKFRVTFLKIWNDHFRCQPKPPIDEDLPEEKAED
- assay.method.text: Competitive binding assay at A1 receptors ([3H]RPIA)
- condition.summary: ratio of Ki values A2/A1
measurement.label: A2/A1 ratio
One number for each entry.

Use the examples below as a reference point.
CCCn1c(=O)c2[nH]c(-c3ccc(OCC(=O)NCCNC(=S)Nc4cc(CO)cc(N=C=S)c4)cc3)nc2n(CCC)c1=O    32
CCCn1c(=O)c2[nH]c(-c3ccc(OCC(=O)NCCNC(=S)Nc4cc(N=C=S)cc(C(=O)NCCNC(=O)CCc5ccc(O)cc5)c4)cc3)nc2n(CCC)c1=O    198

Moving on to another compound below.
Given CCCn1c(=O)c2[nH]c(-c3ccc(OCC(=O)NCCNC(=S)Nc4cc(N=C=S)cc(C(=O)NCCNC(C)=O)c4)cc3)nc2n(CCC)c1=O , state its recorded A2/A1 ratio.
35
